SYSTEM_UNDER_TEST: tyrosine-hydroxylase (Rattus norvegicus, UniProt P04177)
Construct: on rat adrenal homogenate; from tissue; host or cells: rat adrenal homogenate
Sequence (P04177 whole entry): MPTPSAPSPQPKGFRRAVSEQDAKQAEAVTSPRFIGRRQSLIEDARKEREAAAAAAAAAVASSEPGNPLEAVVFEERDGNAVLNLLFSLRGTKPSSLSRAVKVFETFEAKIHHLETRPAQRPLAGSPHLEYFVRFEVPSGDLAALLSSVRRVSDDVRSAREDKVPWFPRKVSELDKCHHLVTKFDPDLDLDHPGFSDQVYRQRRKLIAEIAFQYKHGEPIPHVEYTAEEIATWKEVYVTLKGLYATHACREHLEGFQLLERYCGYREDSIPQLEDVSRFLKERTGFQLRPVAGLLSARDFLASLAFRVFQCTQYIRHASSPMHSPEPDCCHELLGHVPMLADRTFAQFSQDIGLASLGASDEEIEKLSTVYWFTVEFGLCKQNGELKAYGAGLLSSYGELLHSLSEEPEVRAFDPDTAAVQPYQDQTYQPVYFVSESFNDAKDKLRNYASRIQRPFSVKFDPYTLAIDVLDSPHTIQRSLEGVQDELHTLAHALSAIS
EXPERIMENTAL_PROTOCOL: In vitro tyrosine-hydroxylase inhibiting activity (TH) on rat adrenal homogenate
Type: biochemical
ASSAY_CONDITIONS: 10^-5 mole/liter; read-out: Enzyme inhibiting activity, TH
Method: In vitro tyrosine-hydroxylase inhibiting activity (TH inhibiting activity) of the new compounds according to the invention was tested by the method of Nagatsu [Anal. Biochem., 9, 122 (1964)] on rat adrenal homogenate. Radioactive tyrosine was purified by the method elaborated by Ikeda [J. Biol. Chem., 241, 4452 (1966)]. TH activity of the rat adrenal homogenate amounted to […] nmoles/mg protein/60 min. […]
METRIC: inhibition at 10 µM (%)

>>> reported_value("CC(N)(Cc1ccc(O)cc1)C(=O)O (racemic) [D,L-α-methyl-4-hydroxy-phenyl-alanine, reference compound]")
60
>>> reported_value("CC12CCC(CC1=NNc1cccnn1)C2(C)C (stereo not shown)")
75
>>> reported_value("CC(CC(=O)OC(C)(C)C)=NNc1ccc(N2CCOCC2)nn1")
40
>>> reported_value("CCCCc1ccc(C(=O)O)nc1 [Fusaric acid, reference compound]")
0
>>> reported_value("COC(=O)CC(=NNc1ccc(Cl)nn1)C(=O)OC")
10
>>> reported_value("CC(=NNc1cccnn1)c1ccccc1")
40
>>> reported_value("CCOC(=O)CC(C)=NNc1ccc(Cl)nn1")
50
>>> reported_value("O=C(O)C1CCCCC1=NNc1ccc(Cl)nn1 (stereo not shown)")
50
>>> reported_value("c1cnnc(NN=C2CCCCC2)c1 [Example 12, Cyclohexylidene-3-pyridazinylhydrazone]")
85
>>> reported_value("CCOC(=O)CC(C)=NNc1cccnn1")
50
>>> reported_value("CCOC(=O)C1CCCCC1=NNc1ccc(Cl)nn1 (stereo not shown)")
33
>>> reported_value("CC1CCCCC1=NNc1ccc(Cl)nn1 (stereo not shown)")
50
>>> reported_value("CCCOC(=O)CC(C)=NNc1ccc(Cl)nn1")
0
>>> reported_value("O=C(O)C1CCCCC1=NNc1cccnn1 (stereo not shown)")
30
>>> reported_value("CC(CC(=O)OC(C)C)=NNc1ccc(Cl)nn1")
0
>>> reported_value("CC(CC(=O)OC(C)(C)C)=NNc1ccc(Cl)nn1")
0

###

System: spontaneous hypertensive rats (Wistar-Okamoto rats)
EXPERIMENTAL_PROTOCOL: Blood pressure lowering activity, systolic blood pressure of waking spontaneous hypertensive rats, oral
Format: in vivo, rat
ASSAY_CONDITIONS: Rattus norvegicus; 24 hours, + = 20 mg/kg, oral; read-out: Reduction in blood pressure
METRIC: change in vivo at 20 mg/kg (%)

>>> reported_value("CCOC(=O)CCCCC(C)=NNc1ccc(Cl)nn1")
-13
>>> reported_value("CC(CCC(=O)O)=NNc1ccc(C)nn1")
-14
>>> reported_value("CC(CC(=O)OC(C)(C)C)=NNc1ccc(C(N)=O)nn1")
0
>>> reported_value("CC(CCCC(=O)O)=NNc1ccc(Cl)nn1")
-30

###

EXPERIMENTAL_PROTOCOL: Acute toxicity (LD50) on mice
ASSAY_CONDITIONS: mouse, in vivo, po
METRIC: LD50 (mg/kg)

>>> reported_value("CC(CCC(=O)OC(C)(C)C)=NNc1ccc(Cl)nn1 [Example 43]")
200
>>> reported_value("CC(CCC(=O)O)=NNc1ccc(N2CCOCC2)nn1 [Example 48]")
200
